Cited source: the supplement of paper PMC4862054

tested on: MDA-MB-453; experiment: drug sensitivity score (DSS), CellTiter-Glo (DSS (AUC-based score)); higher = stronger drug effect (viability inhibition or cytotoxicity); extreme values may be limits of the assay; conditions: incubation time: 72 h
// values below are reported drug sensitivity score

Guide cases for drug sensitivity score, answers given:
Asked: Any idea what drug sensitivity score was measured for c1ccc([C@H]2CN3CCSC3=N2)cc1 [Levamisole] ?
Given back: 0

Asked: And CC[C@]1(O)C[C@H]2CN(CCc3c([nH]c4ccccc34)[C@@](C(=O)OC)(c3cc4c(cc3OC)N(C=O)[C@H]3[C@@](O)(C(=O)OC)[C@H](OC(C)=O)[C@]5(CC)C=CCN6CC[C@]43[C@@H]65)C2)C1 [Vincristine] ?
Given back: 10.5

Asked: And CNNCc1ccc(C(=O)NC(C)C)cc1 [Procarbazine] ?
Given back: 0

Asked: Try this compound next: CO[C@H]1C[C@@H]2CC[C@@H](C)[C@@](O)(O2)C(=O)C(=O)N2CCCC[C@H]2C(=O)O[C@H]([C@H](C)C[C@@H]2CC[C@@H](OCCO)[C@H](OC)C2)CC(=O)[C@H](C)/C=C(\C)[C@@H](O)[C@@H](OC)C(=O)[C@H](C)C[C@H](C)/C=C/C=C/C=C/1C [Everolimus]
Given back: 10

Asked: Thanks! And Nc1nc(OCc2cc(Br)cs2)c2[nH]cnc2n1 [Lomeguatrib] ?
Given back: 0

Next:
Asked: What value of drug sensitivity score has been reported for the following compound? C/C(=C\c1csc(C)n1)[C@@H]1C[C@@H]2O[C@]2(C)CCC[C@H](C)[C@H](O)[C@@H](C)C(=O)C(C)(C)[C@@H](O)CC(=O)O1 [Patupilone]
Given back: 5.87

Asked: CC(C)c1c(C(=O)Nc2ccccc2)c(-c2ccccc2)c(-c2ccc(F)cc2)n1CC[C@@H](O)C[C@@H](O)CC(=O)O [Atorvastatin] ?
Given back: 0.00416

---

system: MDA-MB-453; test: normalised viability (% of control), CellTiter-Blue; higher = more viable cells (about 100 = DMSO control); conditions: 3000 nM; incubation time: 72 h
READOUT NAME: normalised viability (%)
Your answer should be a plain number; it is taken to be in %.

# annotated cases, reported normalised viability shown
Asked: Data request, read-out normalised viability, for `CC[C@]1(O)C[C@H]2CN(CCc3c([nH]c4ccccc34)[C@@](C(=O)OC)(c3cc4c(cc3OC)N(C=O)[C@H]3[C@@](O)(C(=O)OC)[C@H](OC(C)=O)[C@]5(CC)C=CCN6CC[C@]43[C@@H]65)C2)C1`
Given back: 30.5

Asked: Continue with `CN(C)C[C@@H]1CCn2cc(c3ccccc32)C2=C(C(=O)NC2=O)c2cn(c3ccccc23)CCO1`
Given back: 74.2

Asked: Moving on to `CN1CCN(CCOc2cc(OC3CCOCC3)c3c(Nc4c(Cl)ccc5c4OCO5)ncnc3c2)CC1`
Given back: 60.9

Okay, next one:
Asked: For `CCCCCCCCc1ccc(CCC(N)(CO)CO)cc1` , what is its reported normalised viability?
Given back: 95.2

---

system: SK-BR-3; test: normalised viability (% of control), CellTiter-Blue; higher = more viable cells (about 100 = DMSO control); settings: 10000 nM; incubation time: 72 h
Please assign no (0) whenever normalised viability is at or above 80%, and yes (1) whenever it is below.

Examples with answers:
Asked: Does `CCCCCCCCc1ccc(CCC(N)(CO)CO)cc1` have normalised viability strictly under 80%?
Given back: yes (1)

Asked: Also need `Cn1cncc1[C@@](N)(c1ccc(Cl)cc1)c1ccc2c(c1)c(-c1cccc(Cl)c1)cc(=O)n2C` , thanks.
Given back: yes (1)

Asked: Would you kindly repeat that for CN(C)CCN1C(=O)c2cccc3cc(N)cc(c23)C1=O [Amonafide] ?
Given back: yes (1)

Asked: Do the same for `CC(C)(C#N)c1cc(Cn2cncn2)cc(C(C)(C)C#N)c1` please
Given back: no (0)

More entries:
Asked: Is normalised viability of `CNNCc1ccc(C(=O)NC(C)C)cc1` strictly below 80%?
Given back: no (0)

---

system: MDA-MB-453; experiment: normalised viability (% of control), CellTiter-Blue; higher = more viable cells (about 100 = DMSO control); details: 300 nM; incubation time: 72 h
READOUT NAME: normalised viability (%)
Give the value, in units of %, as a plain number.

Asked: # lookup: normalised viability of COc1ccc(-c2ccc3c(N4CCOC[C@@H]4C)nc(N4CCOC[C@@H]4C)nc3n2)cc1CO [AZD8055]
Given back: 15.7

Asked: What do you get for CN(C)C[C@@H]1CCn2cc(c3ccccc32)C2=C(C(=O)NC2=O)c2cn(c3ccccc23)CCO1 [Ruboxistaurin] ?
Given back: 104

Asked: What do you have for CN(C)CCN1C(=O)c2cccc3cc(N)cc(c23)C1=O [Amonafide] ?
Given back: 92.5

Asked: Likewise for CCCCCCCCc1ccc(CCC(N)(CO)CO)cc1 [Fingolimod] ?
Given back: 107

Consider the additional compound presented here.
Asked: What value of normalised viability has been recorded for this entry: CC[C@]1(O)C[C@H]2CN(CCc3c([nH]c4ccccc34)[C@@](C(=O)OC)(c3cc4c(cc3OC)N(C=O)[C@H]3[C@@](O)(C(=O)OC)[C@H](OC(C)=O)[C@]5(CC)C=CCN6CC[C@]43[C@@H]65)C2)C1 [Vincristine]
Given back: 34.2

---

# drug sensitivity score per entry
tested on: HCC1143; experiment: drug sensitivity score (DSS), CellTox Green (DSS (AUC-based score)); higher = stronger drug effect (viability inhibition or cytotoxicity); extreme values may be limits of the assay; conditions: incubation time: 72 h
Enter a number only.

Completed entries (count: 5):
Asked: Any idea what its drug sensitivity score is? The compound is C[C@]12CC[C@H](O)CC1=CC[C@@H]1[C@@H]2CC[C@]2(C)C(c3cccnc3)=CC[C@@H]12 [Abiraterone]
Given back: 0

Asked: What do we get for O=C1NC(=O)[C@@H](c2cn3c4c(cccc24)CCC3)[C@@H]1c1c[nH]c2ccccc12 [Tivantinib] ?
Given back: 0

Asked: Ok, now CN(C)C[C@@H]1CCn2cc(c3ccccc32)C2=C(C(=O)NC2=O)c2cn(c3ccccc23)CCO1 [Ruboxistaurin]
Given back: 0

Asked: Then this compound: COc1ccc(-c2ccc3c(N4CCOC[C@@H]4C)nc(N4CCOC[C@@H]4C)nc3n2)cc1CO [AZD8055]
Given back: 8.37

Asked: Entry to check: c1ccc([C@H]2CN3CCSC3=N2)cc1 [Levamisole]
Given back: 0

Others:
Asked: Data request, read-out drug sensitivity score, for CO[C@H]1C[C@@H]2CC[C@@H](C)[C@@](O)(O2)C(=O)C(=O)N2CCCC[C@H]2C(=O)O[C@H]([C@H](C)C[C@@H]2CC[C@@H](OCCO)[C@H](OC)C2)CC(=O)[C@H](C)/C=C(\C)[C@@H](O)[C@@H](OC)C(=O)[C@H](C)C[C@H](C)/C=C/C=C/C=C/1C [Everolimus]
Given back: 0

Asked: Cool, now `Nc1ncnc2c1c(COc1cccc(Cl)c1)nn2C1CCOCC1`
Given back: 0

Asked: Similarly, CC(C)c1c(C(=O)Nc2ccccc2)c(-c2ccccc2)c(-c2ccc(F)cc2)n1CC[C@@H](O)C[C@@H](O)CC(=O)O [Atorvastatin] ?
Given back: 0

Asked: Do the same for C/C(=C\c1csc(C)n1)[C@@H]1C[C@@H]2O[C@]2(C)CCC[C@H](C)[C@H](O)[C@@H](C)C(=O)C(C)(C)[C@@H](O)CC(=O)O1 [Patupilone] please
Given back: 0.908

---

Examples of molecules with documented EC50, CellTiter-Blue viability follow.
test system: Hs578T; conditions: 72 h

Asked: # lookup: EC50, CellTiter-Blue viability of O=C1NC(=O)[C@@H](c2cn3c4c(cccc24)CCC3)[C@@H]1c1c[nH]c2ccccc12 [Tivantinib]
Given back: 592 nM

Asked: Repeat for the following molecule: `CO[C@H]1C[C@@H]2CC[C@@H](C)[C@@](O)(O2)C(=O)C(=O)N2CCCC[C@H]2C(=O)O[C@H]([C@H](C)C[C@@H]2CC[C@@H](OCCO)[C@H](OC)C2)CC(=O)[C@H](C)/C=C(\C)[C@@H](O)[C@@H](OC)C(=O)[C@H](C)C[C@H](C)/C=C/C=C/C=C/1C`
Given back: 0.13 nM

Asked: Could you do the same for `COc1ccc(-c2ccc3c(N4CCOC[C@@H]4C)nc(N4CCOC[C@@H]4C)nc3n2)cc1CO` , please?
Given back: 36.9 nM

Now let's try a different one.
Asked: Requested read-out: EC50, CellTiter-Blue viability. Entry: `Cn1cncc1[C@@](N)(c1ccc(Cl)cc1)c1ccc2c(c1)c(-c1cccc(Cl)c1)cc(=O)n2C`
Given back: 4400 nM
